- assayed system: cereblon (CRBN) (Homo sapiens, UniProt Q96SW2)
- test description: In vitro CRBN binding assay (AlphaScreen, competitive inhibition of the PROTAC assay)
- assay context: Table 1; AlphaScreen, PROTAC Optimization Kit for BET Bromodomain-Cereblon Binding; read-out: Alpha IC50
assay endpoint: IC50 (µM)
Please reply with the bare figure in µM and do not write the unit itself.

CCCCCCOc1ccc(NC(=O)CCc2cccc(Nc3cccc(C4CCC(=O)NC4=O)c3)c2)cc1 (stereo not drawn)    3.47
CC1CCC(C(=O)Nc2cccc(S(=O)(=O)Nc3cccc(C4CCC(=O)NC4=O)c3)c2)CC1 (stereo not drawn)    2.13
Cc1ccc(CNc2cccc(C3CCC(=O)NC3=O)c2)cc1 (stereo not drawn)    1.24

# ---- query compound ----
I'd like to know its IC50. The compound in question is O=C1CCC(c2ccc3c(c2)OCCN(c2cccc(NC(=O)C4(C(=O)Nc5ccc(F)cc5)CC4)c2)C3=O)C(=O)N1 (stereo not drawn)
2.16
